Biological target: T1, human iRhom2 (inactive rhomboid protein 2, isoform 1), endogenously expressed on human cells (human, UniProt Q6PJF5 1-856); also: test concentration or dose not given here
T1 sequence: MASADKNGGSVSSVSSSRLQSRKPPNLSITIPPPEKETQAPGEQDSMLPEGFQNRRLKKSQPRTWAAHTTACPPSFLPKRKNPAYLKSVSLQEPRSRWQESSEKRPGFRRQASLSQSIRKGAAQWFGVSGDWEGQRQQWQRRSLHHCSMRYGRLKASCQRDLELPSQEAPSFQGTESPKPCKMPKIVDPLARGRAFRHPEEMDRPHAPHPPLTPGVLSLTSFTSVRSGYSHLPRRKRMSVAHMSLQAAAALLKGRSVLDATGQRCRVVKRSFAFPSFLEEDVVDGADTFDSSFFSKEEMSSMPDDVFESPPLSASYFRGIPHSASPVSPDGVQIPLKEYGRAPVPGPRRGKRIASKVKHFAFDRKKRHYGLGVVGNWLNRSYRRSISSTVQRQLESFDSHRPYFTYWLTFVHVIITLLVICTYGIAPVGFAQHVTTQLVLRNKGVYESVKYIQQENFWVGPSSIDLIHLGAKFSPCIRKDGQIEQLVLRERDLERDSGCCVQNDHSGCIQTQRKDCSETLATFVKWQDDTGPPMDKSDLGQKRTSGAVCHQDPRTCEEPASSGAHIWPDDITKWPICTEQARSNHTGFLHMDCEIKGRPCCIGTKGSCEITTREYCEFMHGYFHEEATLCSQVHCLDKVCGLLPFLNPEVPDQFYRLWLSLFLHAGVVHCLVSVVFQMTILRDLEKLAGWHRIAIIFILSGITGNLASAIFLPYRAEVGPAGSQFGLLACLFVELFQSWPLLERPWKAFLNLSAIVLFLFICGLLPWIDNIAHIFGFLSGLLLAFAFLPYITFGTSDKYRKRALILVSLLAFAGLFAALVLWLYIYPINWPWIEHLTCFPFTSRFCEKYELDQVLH
Assay: cell-based or functional assay
OBSERVABLE: inhibition of PMA-induced release of HB-EGF from U-937 cells (% inhibition)
Kindly provide the numeric value in % inhibition only, without the unit symbol.

BINDER: antibody 22 (antibody, V domains shown, Mouse IgG, kappa light chain; also called clone #22; m22) VH: QVTLKESGPGILQPSQTLSLTCSFSGFSLSTFGMGVGWIRQPSGKGLEWLAHIWWDDEKYYNSALKSRLTISKATSKNQVFLKIANVDTADTATYYCARISNYGSNYWYFNVWGTGTTVTVSS VL: QVVLTQSPALMSASPGEKVTMTCSAGSSVSYMYWYQQKPGSSPRVLIYDTSNLASGVPARFTGSGSGTSYSLTISRMEAEDAATYYCQQWNSYPLTFGAGTKLELK
UNIT ANNOTATION: % inhibition
TEST VALUE: 101
--
BINDER: antibody 42 (antibody, V domains shown, Mouse IgG, kappa light chain; also called clone #42; m42) VH: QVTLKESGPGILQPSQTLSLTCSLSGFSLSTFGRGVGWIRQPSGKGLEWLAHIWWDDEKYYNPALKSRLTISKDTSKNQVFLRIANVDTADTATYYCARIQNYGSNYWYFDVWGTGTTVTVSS VL: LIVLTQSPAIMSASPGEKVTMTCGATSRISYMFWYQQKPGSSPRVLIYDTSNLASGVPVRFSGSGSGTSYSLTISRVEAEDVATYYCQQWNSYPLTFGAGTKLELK
UNIT ANNOTATION: % inhibition
TEST VALUE: 104

Now turn to the next binder.
Given item antibody 16 (antibody, V domains shown, Mouse IgG, kappa light chain; also called clone #16; m16) VH: QVTLKESGPGILQPSQTLSLTCSFSGFSLSTFALGVGWIRQPSGRGLEWLAHIWWDDDKYYNPALKSRLTISKDTSKNHVFLKIANVDTADTATYYCARITTYYYGMDYWGQGTSVTVSS VL: DIVLSQSPATLSVTPGDSVSLFCRASQSIGNHLHWYQQESHASPRLLIKYASQSISGIPSRFSGSGSGTDFTLSINSVETEDFGMYFCQQSYNWPLTFGAGTKLELK , the value recorded as its inhibition of PMA-induced release of HB-EGF from U-937 cells is 99.6
